Items are presented alongside their recorded protein stability index.
B1: INTS4 (parent)
chain: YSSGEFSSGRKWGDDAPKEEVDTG

variants of: B1; assay: protein stability index of a GFP-peptide fusion (GPS, HEK-293T) (PSI 1-6); higher = more stable; conditions: c terminus: a fixed tail appended;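 note: lentivirally expressed fusions sorted by FACS into six bins by GFP to DsRed ratio, PSI derived from sequencing read proportions per bin multiplied by bin number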

sequence_entry | protein stability index
YSSGEFSSGRKWGDDAPKEEVDTI [G24I] | 2.25
YSSGEFTSGRKWGDDAPKEEVDTG [S7T] | 3.02
YSSGEFSSGRKWGDDEPKEEVDTG [A16E] | 2.99
YSSGEFSSGRGWGDDAPKEEVDTG [K11G] | 2.98
YSSGLFSSGRKWGDDAPKEEVDTG [E5L] | 2.11
YSSGEFSSGRKWGDRAPKEEVDTG [D15R] | 1.92
YSSGEFSSGRKWGDDAPKEEVNTG [D22N] | 2.74
YSSGEFSSGRKWGDDAPKEEVDNG [T23N] | 2.35
YSSGEFSSGRKWGDDAPKEEVGTG [D22G] | 2.35
YSSGEFSSGRFWGDDAPKEEVDTG [K11F] | 1.9
YSSGEFSSLRKWGDDAPKEEVDTG [G9L] | 2.49
YSTGEFSSGRKWGDDAPKEEVDTG [S3T] | 3.83
YSSGEFSSGRKWGDDAPKEEYDTG [V21Y] | 2.74
YSSGEFSSGRKWGDDAPKEEVVTG [D22V] | 1.86
YSSGEFSSGRKWGDDAPKGEVDTG [E19G] | 2.48
YSSGEFSSGSKWGDDAPKEEVDTG [R10S] | 3.19
YSSGEFSSGRKWGDDAPKEEVDTY [G24Y] | 2.28
YSSGEFSSGRKWGDDSPKEEVDTG [A16S] | 2.63
YISGEFSSGRKWGDDAPKEEVDTG [S2I] | 2.42
YSSGEFDSGRKWGDDAPKEEVDTG [S7D] | 3.83
YSSMEFSSGRKWGDDAPKEEVDTG [G4M] | 3.75
YSSGEFSSGRKWGDDAPKLEVDTG [E19L] | 1.94
YSSGENSSGRKWGDDAPKEEVDTG [F6N] | 5.22
YSSGEFSSGRMWGDDAPKEEVDTG [K11M] | 2.62
YSSGEFSSGRKWGDDAPKEKVDTG [E20K] | 1.91
YSSGIFSSGRKWGDDAPKEEVDTG [E5I] | 1.97
YSSGEISSGRKWGDDAPKEEVDTG [F6I] | 4.67
YSSGEFSSRRKWGDDAPKEEVDTG [G9R] | 2.32
YSSGEFSSGRKWGDDAPKEEVDCG [T23C] | 2.95
YSSGEFSSGRKWGDEAPKEEVDTG [D15E] | 3.12
YSSGEFSSGRKIGDDAPKEEVDTG [W12I] | 3.2
PSSGEFSSGRKWGDDAPKEEVDTG [Y1P] | 5.42
YSSSEFSSGRKWGDDAPKEEVDTG [G4S] | 4.02
YSSGEFSSGRKWGDDAPYEEVDTG [K18Y] | 2.62
YSSGEFSSGRKWGMDAPKEEVDTG [D14M] | 1.94
YSSGEFSSGRKWGPDAPKEEVDTG [D14P] | 2.04
YSSGEFSSGRKWGDYAPKEEVDTG [D15Y] | 2.01
YSSGEFSSGRCWGDDAPKEEVDTG [K11C] | 1.93
TSSGEFSSGRKWGDDAPKEEVDTG [Y1T] | 5.12
YSSGEFSSGRYWGDDAPKEEVDTG [K11Y] | 3.31
YSSGEFSSGRKWGDDAPKYEVDTG [E19Y] | 1.74
YSSGEFSSWRKWGDDAPKEEVDTG [G9W] | 1.43
YSSGEFSSGRKWGDDAPKEEVDTP [G24P] | 2.4
YSSGEFSSGRKWGIDAPKEEVDTG [D14I] | 1.54
YSAGEFSSGRKWGDDAPKEEVDTG [S3A] | 4.89
YSSGEFSSGRKWGDDVPKEEVDTG [A16V] | 2.42
